Tested on: K562R
ASSAY_METHOD_TEXT: Inhibition of P-gp in doxorubicin-resistant human K562R cells assessed as rhodamine influx by measuring mean fluorescence intensity at 10 uM incubated for 20 mins by flow cytometry
Type: cell-based
Hi! Just check whether Flu intensity is below 3. Below gives condition met, equal or above gives condition not met.

| CHEMICAL_STRING | MEASURED_TARGET | CLASSIFICATION |
| --- | --- | --- |
| CCC1=C[C@H]2CN(C1)C1=C(Cc3c([nH]c4ccccc34)[C@@](C(=O)OC)(c3cc4c(cc3OC)N(C)[C@H]3[C@@](O)(C(=O)OC)[C@H](OC(C)=O)[C@]5(CC)C=CCN6CC[C@]43[C@@H]65)C2)C(=O)N(Cc2ccccc2)C1=O | K562R | condition not met |

Would you kindly look at the next entry?
Does the reported Flu intensity of the following molecule sit strictly below 3? CCC1=C[C@H]2CN(C1)/C(C(=O)NCc1ccccc1)=C(/C(=O)OC)Cc1c([nH]c3ccccc13)[C@@](C(=O)OC)(c1cc3c(cc1OC)N(C)[C@H]1[C@@](O)(C(=O)OC)[C@H](OC(C)=O)[C@]4(CC)C=CCN5CC[C@]31[C@@H]54)C2
condition met

###

ASSAY_METHOD_TEXT: Cytotoxicity against human K562 cells incubated for 72 hrs by CellTiter 96 aqueous one solution reagent based assay
Type: functional, cell-based
QUANTITY_KIND: IC50
Reply with a number, then the unit it belongs to.

| CHEMICAL_STRING | IC50 |
| --- | --- |
| C#Cc1ccc2[nH]c3c(c2c1)C/C(C(=O)OC)=C(/C(=O)NC(C)C)N1CC(CC)=C[C@@H](C1)C[C@]3(C(=O)OC)c1cc2c(cc1OC)N(C)[C@H]1[C@@](O)(C(=O)OC)[C@H](OC(C)=O)[C@]3(CC)C=CCN4CC[C@]21[C@@H]43 | 0.6 µmol |

Then this compound:
// IC50 lookup, key: CCC1=C[C@@H]2CN(C1)Cc1c([nH]c3ccccc13)[C@@](C(=O)OC)(c1cc3c(cc1OC)N(C)[C@H]1[C@@](O)(C(=O)OC)[C@H](OC(C)=O)[C@]4(CC)C=CCN5CC[C@]31[C@@H]54)C2
0.003 µmol

###

ASSAY_METHOD_TEXT: Cytotoxicity against doxorubicin-resistant human K562R cells incubated for 72 hrs by CellTiter 96 aqueous one solution reagent based assay
Type: functional, cell-based
CONDITION_SET: k-562r
QUANTITY_KIND: IC50 (µmol)
Reply numerically in µmol, unit not repeated.

| MOLECULE | IC50 (µmol) |
| --- | --- |
| C#Cc1ccc2[nH]c3c(c2c1)C/C(C(=O)OC)=C(/C(=O)NC(C)C)N1CC(CC)=C[C@@H](C1)C[C@]3(C(=O)OC)c1cc2c(cc1OC)N(C)[C@H]1[C@@](O)(C(=O)OC)[C@H](OC(C)=O)[C@]3(CC)C=CCN4CC[C@]21[C@@H]43 | 2.5 |
| C#Cc1ccc2[nH]c3c(c2c1)C/C(C(=O)OC)=C\N1CC(CC)=C[C@@H](C1)C[C@]3(C(=O)OC)c1cc2c(cc1OC)N(C)[C@H]1[C@@](O)(C(=O)OC)[C@H](OC(C)=O)[C@]3(CC)C=CCN4CC[C@]21[C@@H]43 | 3 |
| CCC1=C[C@H]2CN(C1)/C(C(=O)NC(C)C)=C(/C(=O)OC)Cc1c([nH]c3ccccc13)[C@@](C(=O)OC)(c1cc3c(cc1OC)N(C)[C@H]1[C@@](O)(C(=O)OC)[C@H](OC(C)=O)[C@]4(CC)C=CCN5CC[C@]31[C@@H]54)C2 | 2 |
| CCOC(=O)[C@@H]1Cc2c([nH]c3ccccc23)[C@@](C(=O)OC)(c2cc3c(cc2OC)N(C)[C@H]2[C@@](O)(C(=O)OC)[C@H](OC(C)=O)[C@]4(CC)C=CCN5CC[C@]32[C@@H]54)C[C@H]2C=C(CC)CN(C2)C1 | 3 |
| CCC1=C[C@H]2CN(C1)C1=C(Cc3c([nH]c4ccccc34)[C@@](C(=O)OC)(c3cc4c(cc3OC)N(C)[C@H]3[C@@](O)(C(=O)OC)[C@H](OC(C)=O)[C@]5(CC)C=CCN6CC[C@]43[C@@H]65)C2)C(=O)N(Cc2ccccc2)C1=O | 5 |

// IC50 lookup, key: COc1cccc2c1C(=O)c1c(O)c3c(c(O)c1C2=O)C[C@@](O)(C(=O)CO)C[C@@H]3O[C@H]1C[C@H](N)[C@H](O)[C@H](C)O1 [DOXORUBICIN]
35

###

ASSAY_METHOD_TEXT: Cytotoxicity against human MRC5 cells incubated for 72 hrs by CellTiter 96 aqueous one solution reagent based assay
Assay type: toxicity, cell-based
CONDITION_SET: mrc5, 72 h

| CHEMICAL_STRING | Activity |
| --- | --- |
| CCC1=C[C@@H]2CN(C1)Cc1c([nH]c3ccccc13)[C@@](C(=O)OC)(c1cc3c(cc1OC)N(C)[C@H]1[C@@](O)(C(=O)OC)[C@H](OC(C)=O)[C@]4(CC)C=CCN5CC[C@]31[C@@H]54)C2 | Toxic |
| CC[C@]1(O)C[C@@H]2CN(CCc3c([nH]c4ccccc34)[C@@](C(=O)OC)(c3cc4c(cc3OC)N(C)[C@H]3[C@@](O)(C(=O)OC)[C@H](OC(C)=O)[C@]5(CC)C=CCN6CC[C@]43[C@@H]65)C2)C1 | Toxic |
| CCC1=C[C@H]2CN(C1)C1=C(Cc3c([nH]c4ccccc34)[C@@](C(=O)OC)(c3cc4c(cc3OC)N(C)[C@H]3[C@@](O)(C(=O)OC)[C@H](OC(C)=O)[C@]5(CC)C=CCN6CC[C@]43[C@@H]65)C2)C(=O)N(Cc2ccccc2)C1=O | Toxic |

###

ASSAY_METHOD_TEXT: Cytotoxicity against human MRC5 cells incubated for 72 hrs by CellTiter 96 aqueous one solution reagent based assay
Format: toxicity, cell-based
CONDITION_SET: mrc5, 72 h
QUANTITY_KIND: Activity

| CHEMICAL_STRING | QUANTITY_KIND | OBSERVED_RESULT |
| --- | --- | --- |
| CCC1=C[C@H]2CN(C1)C1=C(Cc3c([nH]c4ccccc34)[C@@](C(=O)OC)(c3cc4c(cc3OC)N(C)[C@H]3[C@@](O)(C(=O)OC)[C@H](OC(C)=O)[C@]5(CC)C=CCN6CC[C@]43[C@@H]65)C2)C(=O)N(CC(C)C)C1=O | Activity | Toxic |
| CCC1=C[C@H]2CN(C1)C1=C(Cc3c([nH]c4ccccc34)[C@@](C(=O)OC)(c3cc4c(cc3OC)N(C)[C@H]3[C@@](O)(C(=O)OC)[C@H](OC(C)=O)[C@]5(CC)C=CCN6CC[C@]43[C@@H]65)C2)C(=O)N(C(C)C)C1=O | Activity | Toxic |

###

ASSAY_METHOD_TEXT: Cytotoxicity against human K562 cells incubated for 72 hrs by CellTiter 96 aqueous one solution reagent based assay
Format: functional, cell-based
Hi! Just check whether IC50 is below 0.04 µmol. Below gives class 1, equal or above gives class 0.

These solved cases illustrate the format of a correct answer.
| COMPOUND | CLASSIFICATION |
| --- | --- |
| CCC1=C[C@H]2CN(C1)C[C@H](C(=O)OCc1ccccc1)Cc1c([nH]c3ccccc13)[C@@](C(=O)OC)(c1cc3c(cc1OC)N(C)[C@H]1[C@@](O)(C(=O)OC)[C@H](OC(C)=O)[C@]4(CC)C=CCN5CC[C@]31[C@@H]54)C2 | class 0 |
| CC[C@]1(O)C[C@@H]2CN(CCc3c([nH]c4ccccc34)[C@@](C(=O)OC)(c3cc4c(cc3OC)N(C)[C@H]3[C@@](O)(C(=O)OC)[C@H](OC(C)=O)[C@]5(CC)C=CCN6CC[C@]43[C@@H]65)C2)C1 [VINBLASTINE] | class 1 |
| CCC1=C[C@H]2CN(C1)C1=C(Cc3c([nH]c4ccccc34)[C@@](C(=O)OC)(c3cc4c(cc3OC)N(C)[C@H]3[C@@](O)(C(=O)OC)[C@H](OC(C)=O)[C@]5(CC)C=CCN6CC[C@]43[C@@H]65)C2)C(=O)N(Cc2ccccc2)C1=O | class 0 |

Would you kindly look at the next entry?
Does the reported IC50 of the following compound sit strictly below 0.04 µmol? CCC1=C[C@H]2CN(C1)C1=C(Cc3c([nH]c4ccccc34)[C@@](C(=O)OC)(c3cc4c(cc3OC)N(C)[C@H]3[C@@](O)(C(=O)OC)[C@H](OC(C)=O)[C@]5(CC)C=CCN6CC[C@]43[C@@H]65)C2)C(=O)N(C(C)C)C1=O
class 0

###

Tested on: K562R
ASSAY_METHOD_TEXT: Inhibition of P-gp in doxorubicin-resistant human K562R cells assessed as rhodamine influx by measuring mean fluorescence intensity at 10 uM incubated for 20 mins by flow cytometry
Assay type: cell-based
Hi! Just check whether Flu intensity is below 3. Below gives Met, equal or above gives Not met.

These solved cases illustrate the format of a correct answer.
| CHEMICAL_STRING | CLASSIFICATION |
| --- | --- |
| CCC1=C[C@H]2CN(C1)C1=C(Cc3c([nH]c4ccccc34)[C@@](C(=O)OC)(c3cc4c(cc3OC)N(C)[C@H]3[C@@](O)(C(=O)OC)[C@H](OC(C)=O)[C@]5(CC)C=CCN6CC[C@]43[C@@H]65)C2)C(=O)N(CC(C)C)C1=O | Not met |
| CCC1=C[C@H]2CN(/C=C(/C(=O)OCc3ccccc3)Cc3c([nH]c4ccccc34)[C@@](C(=O)OC)(c3cc4c(cc3OC)N(C)[C@H]3[C@@](O)(C(=O)OC)[C@H](OC(C)=O)[C@]5(CC)C=CCN6CC[C@]43[C@@H]65)C2)C1 | Met |

Would you kindly look at the next entry?
Does the reported Flu intensity of the following molecule sit strictly below 3? CCC1=C[C@H]2CN(C1)C1=C(Cc3c([nH]c4ccccc34)[C@@](C(=O)OC)(c3cc4c(cc3OC)N(C)[C@H]3[C@@](O)(C(=O)OC)[C@H](OC(C)=O)[C@]5(CC)C=CCN6CC[C@]43[C@@H]65)C2)C(=O)N(C(C)C)C1=O
Not met

// provenance: ChEMBL document CHEMBL3860099
